Data provenance is ChEMBL document CHEMBL4346747.

# System: Trypanosoma brucei
# test.method.notes: Antitrypanosomal activity against suramin sensitive Trypanosoma brucei Squib427 trypomastigotes assessed as reduction in parasitic cell viability measured after 72 hrs by resazurin dye based fluorimetric analysis
# Assay type: functional, organism-based
# measurement.setup: Squib427, 72 h, read-out: IC50
pIC50: −log10 of the molar value.
quantity.measured: pIC50

CCCCNC(=O)C#Cc1cc(C2=NN(C3CCCCCC3)C(=O)[C@@H]3CC=CC[C@H]23)ccc1OC (relative stereo) : 6.22
COc1ccc(C2=NN(C3CCCCCC3)C(=O)[C@@H]3CC=CC[C@H]23)cc1C#CC(=O)NCc1ccco1 (relative stereo) : 6.22

* * *

# test.method.notes: Cytotoxicity against human MRC5 SV2 cells assessed as reduction in cell viability measured after 72 hrs by resazurin dye based fluorimetric analysis
quantity.measured: CC50 at 72 h (µM)
Give your result in µM as a bare value.

// CC50 at 72 h value for COc1ccc(C2=NN(C3CCCCCC3)C(=O)[C@@H]3CC=CC[C@H]23)cc1-c1ccc(C(=O)NCC(N)=O)cc1 : 39.8

// CC50 at 72 h value for COc1ccc(C2=NN(C3CCCCCC3)C(=O)[C@@H]3CC=CC[C@H]23)cc1C#CC(=O)NCc1ccco1 (relative stereo) : 50.1

// CC50 at 72 h value for COc1ccc(C2=NN(C(C)C)C(=O)[C@@H]3CC=CC[C@H]23)cc1-c1ccc(C(=O)NCC(N)=O)cc1 : 31.6

// CC50 at 72 h value for COc1ccc(C2=NN(C3CCCCCC3)C(=O)[C@@H]3CC=CC[C@H]23)cc1C#CC(=O)NCC(N)=O (relative stereo) : 3.98

// CC50 at 72 h value for COc1ccc(C2=NN(C3CCCCCC3)C(=O)[C@@H]3CC=CC[C@H]23)cc1C#CC(N)=O (relative stereo) : 10

* * *

# assay.system: UniProt:Q8WQX9
# Sequence (Q8WQX9 whole entry): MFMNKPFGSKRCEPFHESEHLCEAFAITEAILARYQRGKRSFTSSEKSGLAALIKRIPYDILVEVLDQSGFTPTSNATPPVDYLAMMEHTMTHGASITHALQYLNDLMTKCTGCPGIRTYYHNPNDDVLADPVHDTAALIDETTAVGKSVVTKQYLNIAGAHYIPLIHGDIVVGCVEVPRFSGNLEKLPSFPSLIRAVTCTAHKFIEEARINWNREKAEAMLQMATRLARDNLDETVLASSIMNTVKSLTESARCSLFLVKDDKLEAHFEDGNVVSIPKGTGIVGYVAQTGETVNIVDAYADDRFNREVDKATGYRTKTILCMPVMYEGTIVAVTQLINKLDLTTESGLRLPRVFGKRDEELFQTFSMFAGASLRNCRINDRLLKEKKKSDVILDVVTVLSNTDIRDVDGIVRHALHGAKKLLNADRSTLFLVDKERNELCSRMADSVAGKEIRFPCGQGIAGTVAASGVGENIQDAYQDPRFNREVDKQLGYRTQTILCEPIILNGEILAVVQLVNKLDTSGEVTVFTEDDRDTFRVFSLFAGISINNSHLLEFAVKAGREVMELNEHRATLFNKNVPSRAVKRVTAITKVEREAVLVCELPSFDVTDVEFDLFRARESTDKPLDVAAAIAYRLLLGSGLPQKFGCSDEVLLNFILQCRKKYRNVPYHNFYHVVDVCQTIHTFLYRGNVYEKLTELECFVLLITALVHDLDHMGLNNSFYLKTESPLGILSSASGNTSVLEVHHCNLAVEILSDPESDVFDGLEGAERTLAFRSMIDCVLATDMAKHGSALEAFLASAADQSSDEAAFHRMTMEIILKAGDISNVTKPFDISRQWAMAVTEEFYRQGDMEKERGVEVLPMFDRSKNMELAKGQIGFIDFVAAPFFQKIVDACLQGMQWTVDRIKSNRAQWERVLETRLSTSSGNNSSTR
quantity.measured: Ki (µM)

Before answering, review these 2 worked examples.
COc1ccc(C2=NN(C3CCCCCC3)C(=O)[C@@H]3CC=CC[C@H]23)cc1-c1ccc2c(c1)CN(CC(N)=O)C2=O (relative stereo) : 1.26
COc1ccc(C2=NN(C3CCCCCC3)C(=O)[C@@H]3CC=CC[C@H]23)cc1C#CC(=O)N1CCOCC1 (relative stereo) : 1

I. COCCN1Cc2cc(-c3cc(C4=NN(C5CCCCCC5)C(=O)[C@@H]5CC=CC[C@H]45)ccc3OC)ccc2C1=O (relative stereo)
II. COc1ccc(C2=NN(C3CCCCCC3)C(=O)[C@@H]3CC=CC[C@H]23)cc1C#CC(=O)NCc1ccco1 (relative stereo)
Query block: Determine, for I and II , which has the greater value of Ki. Please respond with the label that marks your chosen entry.
Result block: I
(I: 1.26 µM, II: 0.501 µM)

* * *

# assay.system: 3',5'-cyclic-AMP phosphodiesterase 4B (Homo sapiens)
# Sequence (Q07343 whole entry): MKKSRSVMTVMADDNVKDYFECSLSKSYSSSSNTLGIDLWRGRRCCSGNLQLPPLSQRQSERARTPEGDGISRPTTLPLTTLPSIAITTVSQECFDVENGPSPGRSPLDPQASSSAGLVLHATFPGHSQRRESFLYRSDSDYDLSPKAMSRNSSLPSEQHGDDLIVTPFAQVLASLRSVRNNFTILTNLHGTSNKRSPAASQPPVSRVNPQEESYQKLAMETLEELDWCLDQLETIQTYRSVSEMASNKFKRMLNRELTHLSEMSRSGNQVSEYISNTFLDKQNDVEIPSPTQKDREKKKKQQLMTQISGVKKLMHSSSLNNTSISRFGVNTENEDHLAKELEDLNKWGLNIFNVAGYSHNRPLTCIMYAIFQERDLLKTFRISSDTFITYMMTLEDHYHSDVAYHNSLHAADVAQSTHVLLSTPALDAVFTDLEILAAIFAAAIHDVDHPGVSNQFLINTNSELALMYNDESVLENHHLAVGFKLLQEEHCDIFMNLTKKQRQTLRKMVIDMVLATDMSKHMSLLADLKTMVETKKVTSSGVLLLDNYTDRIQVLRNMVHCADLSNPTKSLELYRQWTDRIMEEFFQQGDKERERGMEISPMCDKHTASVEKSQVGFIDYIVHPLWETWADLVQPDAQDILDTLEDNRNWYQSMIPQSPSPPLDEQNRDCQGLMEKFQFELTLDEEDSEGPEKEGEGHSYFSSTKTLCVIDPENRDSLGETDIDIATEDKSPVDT
quantity.measured: Ki (µM)
Give your result in µM as a bare value.

// Ki value for COCCNC(=O)C#Cc1cc(C2=NN(C3CCCCCC3)C(=O)[C@@H]3CC=CC[C@H]23)ccc1OC (relative stereo) : 1.58

* * *

# assay.system: Class 1 phosphodiesterase PDEB1 (Trypanosoma brucei)
# Sequence (Q8WQX9 whole entry): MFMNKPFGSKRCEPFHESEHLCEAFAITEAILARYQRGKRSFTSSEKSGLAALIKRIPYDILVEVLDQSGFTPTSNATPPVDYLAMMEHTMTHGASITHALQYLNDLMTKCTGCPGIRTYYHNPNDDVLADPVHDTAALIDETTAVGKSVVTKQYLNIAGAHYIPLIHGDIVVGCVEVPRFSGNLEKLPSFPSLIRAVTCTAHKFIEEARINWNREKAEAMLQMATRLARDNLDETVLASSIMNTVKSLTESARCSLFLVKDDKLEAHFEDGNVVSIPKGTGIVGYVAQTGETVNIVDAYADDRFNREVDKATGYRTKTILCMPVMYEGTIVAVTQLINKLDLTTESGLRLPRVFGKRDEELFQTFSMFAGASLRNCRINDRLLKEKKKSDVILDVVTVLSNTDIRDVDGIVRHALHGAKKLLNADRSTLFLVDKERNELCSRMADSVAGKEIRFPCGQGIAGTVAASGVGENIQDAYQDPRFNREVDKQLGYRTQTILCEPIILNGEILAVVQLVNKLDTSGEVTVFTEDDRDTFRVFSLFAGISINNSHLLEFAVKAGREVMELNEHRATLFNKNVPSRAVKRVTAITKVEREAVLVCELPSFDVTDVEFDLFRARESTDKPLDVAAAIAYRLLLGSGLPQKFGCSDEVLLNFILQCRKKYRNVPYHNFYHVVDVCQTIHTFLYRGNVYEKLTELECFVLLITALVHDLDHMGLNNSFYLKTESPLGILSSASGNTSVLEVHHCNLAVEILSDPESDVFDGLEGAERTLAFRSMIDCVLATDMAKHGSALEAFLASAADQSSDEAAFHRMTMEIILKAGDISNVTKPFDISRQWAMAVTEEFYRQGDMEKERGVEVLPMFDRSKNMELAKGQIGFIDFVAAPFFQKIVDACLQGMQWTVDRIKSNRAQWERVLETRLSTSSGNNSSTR
pKi: −log10 of the molar value.
quantity.measured: pKi

Before answering, review these 2 worked examples.
COc1ccc(C2=NN(C(C)C)C(=O)[C@@H]3CC=CC[C@H]23)cc1N1CC(C(=O)NCC(N)=O)C1 (relative stereo) : < 5.00
CCCCNC(=O)C1CN(c2cc(C3=NN(C(C)C)C(=O)[C@@H]4CC=CC[C@H]34)ccc2OC)C1 (relative stereo) : < 5.00

// switching to the query molecule
// pKi value for COCCNC(=O)c1ccc(-c2cc(C3=NN(C(C)C)C(=O)[C@@H]4CC=CC[C@H]34)ccc2OC)s1 (relative stereo) : < 5.00
